method_notes: Therapeutic index, ratio of average IC50 for human MRC5 and BJ cells to IC50 for antileishmanial activity against Leishmania major
Format: toxicity
cond: MRC5 and BJ cells (average IC50) versus Leishmania major, read-out: TI
measured_property: selectivity ratio

INSERT INTO results (molecule, value) VALUES
  ('O=C1CS/C(=N/N=C/c2c(-c3ccc(Cl)cc3)[nH]c3ccccc23)N1Cc1ccco1', 0.75),
  ('C=CCSc1nn2c(/C=N/N=C3/NC(=O)C(CCOC(C)=O)S3)c(-c3ccccc3)nc2s1 (centres undefined)', 2.96),
  ('CCOC(=O)C(Cc1ccccc1)N1C(=O)/C(=C/Nc2nccs2)SC1=S (centres undefined)', '> 1.73');

For every item in the list below, what is its measured selectivity ratio?
1. O=C(CC1S/C(=N\N=C\c2c(-c3ccccc3)[nH]c3ccccc23)NC1=O)c1ccccc1 (centres undefined)
2. C[C@@H]1CC[C@@H]2[C@@H](C1)c1sc(=O)n(CC(=O)Nc3ccc(S(N)(=O)=O)cc3)c1SC2(C)C
3. C=CCN1C(=O)C(CC(=O)c2ccc(F)cc2)S/C1=N\N=C1\CC2CCC1(C)C2(C)C (centres undefined)
4. O=C1N/C(=N/N=C/c2c(-c3ccc(Br)cc3)[nH]c3ccccc23)SC1CCO (centres undefined)

## Result
> 5.47
> 2.53
> 3.28
1.75

I have 2 molecules here; please give me selectivity ratio for each one.
1. CCc1nn2c(C=O)c(-c3ccc([N+](=O)[O-])cc3)nc2s1
2. CCCCCCCCCCCCCCCCOP(=O)([O-])OCC[N+](C)(C)C

## Result
["> 1.65", "> 6.11"]

Provenance of the data: ChEMBL document CHEMBL4665886
